The measured values listed here are drawn from patent US20250027068A1.

Target: pooled human IgG (human); further: test concentration or dose not given here
Experiment: cell-based or functional assay
Measured Enzyme Activity Endpoint Assay (purified): scIgG accompanies every entry in the list below.
The answer is to be given in ng/µL; state only the numeric part.

{"binder": "PRT-204 (enzyme) MEVVEVWPYGQNPNGKTEILSQTEDSESLQRLRDIEDFQAEKKMQNVVYTKWLDGVTVKDHDFRKIVDGNIAYYATPLLNGRGFYDINKDFNRDSDKCAAAVAANMFHYWLDRNRDNVDRFLSQNPEKHGIIELPDGQLKLSDFLNTYESDNGYRDKSKLFDFISNNFNGPVWTDKLLDNYINGYAYNYKYGRTIEDPTKNTSKINFFKEVFNEKILTNIHSIRNQNEFSDLLSEALYTGKAIGLSYGPAGLRHSLGHIISVWGADLDADGNVVAIYVTDSDDKKLTIGDERVGLKRYKISTDDEGRARLTAYEETDNTGGQIRGLETLDTGKYAWADYFDKTEQTGTDQAEQLEHHHHHH", "quantity_unit": "ng/µL", "quantitative_readout": 0}
{"binder": "PRT-220 (enzyme) MEVVEVWPYGQNPNGKTEILSQTEDSESLQRLRDIEDFQAEKKKQGVVYTKWLDGVNVDDHEFRKITDGNTEYYATPLLNGRGYYDINKDFNRDSDKCAAAVAANMFHYWLDRNRDNVDRFLRQNPDKHGIIELPDGQLKLSDFLNTYESDHDYRDKSKLFDFISNNFNGPVWTNKLLDNYINGYGYNYKYGRTIEDPTKNTSKINFFKEVFNGKLLTDNHSIRNKNEFSSKLSEALYTGKAIGLSYGPAGLRHSLGHIISVWGADLDEDGNVVAIYVTDSDDKKLTIGDERVGLKRYKVSYDDEGRARLTAYEETDNTGGEIRGLWTLDTGKQYWADYFDKTEQTGTDQAEQLEHHHHHH", "quantity_unit": "ng/µL", "quantitative_readout": 0}
{"binder": "PRT-218 (enzyme) MEVVEVWPYGQNPNGKTEILSQTEDSESLQRLRDIEDFQAEKKKQGVVYTKWLDGVNVDDHEFRKITDGNTEYYATPLLNGRGYYDINKDFNRDSDKCAAAVAANMFHYWLDRNRDNVDRFLRQNPDKHGIIELPDGQLKLSDFLNTYESDHDYRDKSKLFDFISNNFNGPVWTNKLLDNYINGYGYNYKYGRTIEDPTKNTSKINFFKEVFNGKLLTDNHSIRNKNEFSSKLSEALYTGKAIGLSYGPAGLRHSLGHIISVWGADLDEDGNVVAIYVTDSDDKKLTIGDERVGLKRYKVSYDDEGRARLTAYEETDNTGGEIRGLYTLDTGKQYWADYFDKTEQTGTDQAEQLEHHHHHH", "quantity_unit": "ng/µL", "quantitative_readout": 0}
{"binder": "PRT-209 (enzyme) MEVVEVWPYGQNPNGKTEILSQTEDSESLQRLRDIEDFQAEKKKQGVVYTKWLDGVDVDDHDFRKIVDGNIAYYATPLLNGKGFYDINKDFNRDSDKCAAAVAANMFHYWLDQNRDNVDRFLRQNPEKHGIIELPDGQLKLSDFLNTYESDNGYRDKSKLFDFISNNFNGPVWTDKLLDNYINGYAYNYKYGRTIEDPTKNTSKINFFKDVFNEKILTNIHSIRNYNTFSNLLSEALYTGKAIGLSYGPAGLRHSLGHIISVWGADLDEDGNVVAIYVTDSDDKKLTIGDERVGLKRYKISTDDEGRARLTAYEENDNTGGEIRGLYTLDTGKQAWADYFDKTEQTGTDQAEQLEHHHHHH", "quantity_unit": "ng/µL", "quantitative_readout": 71}
{"binder": "PRT-212 (enzyme) MEVVEVWPYGQNPNGKTEILSQTEDSESLQRLRDIEDFQAEKKKEGVVYTKWLDGVDVKDHDFRKIVDGNIEYYATPLLNGRGFYDINKDFNQDSDKCAAAVAANMFHYWLDRNRDNVDRFLSQNPEKHGIIELPDGQLKLSDFLNTYESDDGYRDKSKLFDLISNNFNGPVWTDKLLDNYINGYAYNYKYGRTIEDPTKNTSKINFFKEVFNEKILTNIHSIRNQNEFSDKLSEALYTGKAIGLSYGPAGLRHSLGHIISVWGADLDEDGNVVAIYVTDSDDKKLTIGDERVGLKRYKVSTDDEGRLRLTAYEETDNTGGEIRGIWTLDTGKQAWADYFDKTEQTGTDQAEQLEHHHHHH", "quantity_unit": "ng/µL", "quantitative_readout": 599}

Req: Entry PRT-203 (enzyme) MEVVEVWPYGQNPNGKTEILSQTEDSESLQRLRDIEDFQAEKKKQNVVYTKWLDGVDVKDHDFRKIKDGNIEYYATPLLNGRGFYDINKDFNRDSDKCAAAVAANMFHYWLDRNRDNVDRFLRQNPEKHGIIELPDGQLKLSDFLNTYESDDGYRDKSKLFDFISNNFNGPVWTDKLLDNYINGYAYNYKYGRTIEDPTKNTSKINFFKEVFNEKILTNNHSIRNQNEFSVLLSEALYTGKAIGLSYGPAGLRHSLGHIISVWGADLDADGNVVAIYVTDSDDKKLTIGDERVGLKRYKISTDDEGRARLTAYEETHNTGGQIRGLWTLDTGKQAWADYFDKTEQTGTDQAEQLEHHHHHH has what Enzyme Activity Endpoint Assay (purified): scIgG?
Resp: 0

Req: Entry PRT-195 (enzyme) MANQEIRYSEVTPYHVTSVWTKGVTPPDHDFRKIVDGEDVFHAPYVANQGWYDITKTFNGKDDLLCGAATAGNMLHWWFDQNKDQIKRYLEEHPEKQKINFNGEQMFDVKEAIDTKNHQLDSKLFEYFKEKAFPYLSTKHLGVFPDHVIDMFINGYRLSLTNHGPTPVKEGSKDPRGGIFDAVFTRGDQSKLLTSRHDFKEKNLKEISDLIKKELTEGKALGLSHTYANVRHSINHVINLWGADFDSNGNLKAIYVTDSDDKKLTIGDERIGMKKYFVGVNSAGKVAISAKEIKEDNIGAQVLGLFTLSTGQDSWNQTN has what Enzyme Activity Endpoint Assay (purified): scIgG?
Resp: 15
